- Protocol Text: Efflux ratio of apparent permeability across basolateral to apical over apical to basolateral side in human Caco2 cells
- Format: ADME, cell-based
- Study Conditions: Caco-2
Readout Type: efflux ratio
Just the number, please, no unit attached.

Q: // efflux ratio lookup, key: CCCCCCOC(=O)NC(=N)c1ccc(NCc2nc3cc(C(=O)N(CCC(=O)OCC)c4ccccn4)ccc3n2C)cc1 [DABIGATRAN ETEXILATE]
A: 13.8

* * *

- Protocol Text: Oral bioavailability in human at 10 mg
- Type: ADME, organism-based
- Study Conditions: in vivo
Readout Type: bioavailability

Q: // bioavailability lookup, key: O=C(NC[C@H]1CN(c2ccc(N3CCOCC3=O)cc2)C(=O)O1)c1ccc(Cl)s1
A: > 80%

* * *

- Protocol Text: Apparent permeability across human Caco2 cells measured every 30 mins for 2 hrs
- Type: ADME, cell-based
- Study Conditions: Caco-2
Readout Type: Papp at 2 h (×10⁻⁶ cm/s)
Respond numerically; units are ×10⁻⁶ cm/s and should not be typed.

Q: // Papp at 2 h lookup, key: N=C(N)c1ccc(CNC(=O)[C@@H]2CCN2C(=O)[C@H](NCC(=O)O)C2CCCCC2)cc1
A: 0.03

* * *

- Assayed Target: Plasma kallikrein (Homo sapiens, UniProt P03952)
- Protocol Text: Competitive inhibition of human plasma kallikrein using S2302 as substrate by UV-visible spectrophotometer
Readout Type: Ki (nM)
Respond numerically; units are nM and should not be typed.

Q: // Ki lookup, key: N=C(N)c1ccc(CC(=O)[C@H](Cc2cccc(CN)c2)NC(=O)[C@@H](CCCc2ccccc2)NS(=O)(=O)Cc2cccc(C(=O)O)c2)cc1
A: 0.02

* * *

- Assayed Target: Coagulation factor XI (Homo sapiens)
Readout Type: Ki (nM)
Respond numerically; units are nM and should not be typed.

Q: // Ki lookup, key: N=C(N)c1ccc(CC(=O)[C@H](Cc2cccc(CN)c2)NC(=O)[C@@H](CCCc2ccccc2)NS(=O)(=O)Cc2cccc(C(=O)O)c2)cc1
A: 18

* * *

- Protocol Text: Apparent permeability across apical to basolateral side in human Caco2 cells at 10 umol/l measured at 45 to 120 mins by LC-MS/MS analysis
- Assay type: ADME, cell-based
- Study Conditions: Caco-2
Readout Type: Papp A→B at 10 µM (×10⁻⁶ cm/s)
Respond numerically; units are ×10⁻⁶ cm/s and should not be typed.

Q: // Papp A→B at 10 µM lookup, key: O=C(N[C@@H](Cc1ccccc1)C(=O)NCc1cc(=O)[nH]c2ccc(Cl)cc12)c1ccc2[nH]c(=O)cc(O)c2c1
A: 0.28

* * *

- Assayed Target: Coagulation factor X (Homo sapiens)
Readout Type: Ki (nM)
Respond numerically; units are nM and should not be typed.

Q: Find the measured Ki: item N=C(N)c1ccc(CC(=O)[C@H](Cc2cccc(CN)c2)NC(=O)[C@@H](CCCc2ccccc2)NS(=O)(=O)Cc2cccc(C(=O)O)c2)cc1 , target or system Coagulation factor X (Homo sapiens).
A: 45

* * *

- Protocol Text: Oral bioavailability in human at 57 to 200 mg
- Type: ADME, organism-based
- Study Conditions: in vivo
Readout Type: bioavailability

Q: // bioavailability lookup, key: N=C(N)c1ccc(CNC(=O)[C@@H]2CCN2C(=O)[C@H](NCC(=O)O)C2CCCCC2)cc1
A: 3 to 7%
